Test: Ocular tissue distribution and pharmacokinetics, 7.5 and 15 mg/kg oral, pigmented Dutch Belted rabbits (Example 7)
Type: in vivo
Settings: male, Dutch Belted, rabbit, plasma, po, […], plasma, male DB rabbits, Group 1, Day 1, […] single oral dose
measure: half-life (min)
// return numeric value only (unit: min, not printed)

stdin: For the molecule shown here, CC(=O)c1nn(CC(=O)N2C[C@H](F)C[C@H]2C(=O)Nc2cccc(Br)n2)c2ccc(-c3cnc(C)nc3)cc12 [Compound 1] , give the reported half-life.
stdout: 361

----------
Experiment: Ocular tissue distribution and pharmacokinetics, 7.5 and 15 mg/kg oral, pigmented Dutch Belted rabbits (Example 7)
Format: in vivo
Conditions: male, Dutch Belted, rabbit, plasma, po, […], plasma, male DB rabbits, Group 2, Day 15, […] BID oral (15 mg/kg/day)
measure: half-life (h)
State just the number; it will be interpreted in h.

stdin: // query half-life value for entry `CC(=O)c1nn(CC(=O)N2C[C@H](F)C[C@H]2C(=O)Nc2cccc(Br)n2)c2ccc(-c3cnc(C)nc3)cc12`
stdout: 4.88

----------
Assay: Ocular tissue and plasma pharmacokinetics, 15 mg/kg single and BID oral, Dutch Belted rabbits (Example 3/5)
Format: in vivo
Details: Dutch Belted, rabbit, choroid-RPE, po, 15 mg/kg, DB rabbit, 15 mg/kg single oral dose, Day 1, 6 h; read-out: Mean Choroid-RPE concentration
measure: concentration at 6 h (ng/g)
Record the value in ng/g, omitting the unit from your answer.

stdin: So what does the record say about concentration at 6 h for `CC(=O)c1nn(CC(=O)N2C[C@H](F)C[C@H]2C(=O)Nc2cccc(Br)n2)c2ccc(-c3cnc(C)nc3)cc12` ?
stdout: 866

----------
Assay: Phase 1 single ascending dose plasma pharmacokinetics in healthy volunteers
Type: in vivo, human
Conditions: human, po, 600 mg, Group 2, 600 mg single oral dose, read-out: Mean AUC(0-24)
measure: AUC(0-t)
The reply should read as a number followed by its unit.

stdin: So what does the record say about AUC(0-t) for CC(=O)c1nn(CC(=O)N2C[C@H](F)C[C@H]2C(=O)Nc2cccc(Br)n2)c2ccc(-c3cnc(C)nc3)cc12 [Compound 1] ?
stdout: 6190 ng·h/mL

----------
Assay: Ocular tissue and plasma pharmacokinetics, 15 mg/kg oral, New Zealand White rabbits (Example 3/5)
Format: in vivo
Conditions: New Zealand White, rabbit, choroid-RPE, oral; NZW rabbits, Day 1, 15 mg/kg single dose, 6 hr; read-out: Mean Choroid-RPE Concentration
measure: concentration at 6 h (ng/g)
Just the number in ng/g, nothing appended.

stdin: Recorded concentration at 6 h of `CC(=O)c1nn(CC(=O)N2C[C@H](F)C[C@H]2C(=O)Nc2cccc(Br)n2)c2ccc(-c3cnc(C)nc3)cc12` , please.
stdout: 31.5

----------
Test: Phase 1 single ascending dose plasma pharmacokinetics in healthy volunteers
Assay type: in vivo, human
Conditions: human, po, 200 mg, Group 1, 200 mg single oral dose, Mean (N 6), read-out: Cmax
measure: Cmax (ng/mL)
Just the number please, in ng/mL, no unit attached.

stdin: Could you tell me which Cmax is on file for `CC(=O)c1nn(CC(=O)N2C[C@H](F)C[C@H]2C(=O)Nc2cccc(Br)n2)c2ccc(-c3cnc(C)nc3)cc12` ?
stdout: 1060

----------
Test: Ocular tissue distribution and pharmacokinetics, 7.5 and 15 mg/kg oral, pigmented Dutch Belted rabbits (Example 7)
Assay type: in vivo
Conditions: Dutch Belted, rabbit, choroid-retinal pigment epithelium (choroid-RPE); Choroid-RPE (OU), male DB rabbits, Group 3, Day 15, 15 mg/kg/dose BID oral (30 mg/kg/day)
measure: Tmax (h)
Give the value in h but do not write h after it.

stdin: Consider the molecule `CC(=O)c1nn(CC(=O)N2C[C@H](F)C[C@H]2C(=O)Nc2cccc(Br)n2)c2ccc(-c3cnc(C)nc3)cc12` and give its measured Tmax.
stdout: 1
